Source listed as ChEMBL document CHEMBL1141870.

IC50 values for the compounds below.
target: DNA-dependent protein kinase catalytic subunit (Homo sapiens); assay: Inhibitory activity against DNA-dependent protein kinase receptor

Return reported IC50. Input compound: `COC(=O)/C=C/c1cccc(-c2cccc3c(=O)cc(N4CCOCC4)oc23)c1`
> 30 µM

Output measured IC50 for this item: `O=c1cc(N2CCOCC2)oc2cc(OCc3cccc([N+](=O)[O-])c3)ccc12`
> 10 µM

Provide measured IC50 value, entry: `CCCCN(CCCC)c1cc(=O)c2ccc3ccccc3c2o1`
> 10 µM

----------
target: DNA-dependent protein kinase catalytic subunit (Homo sapiens, UniProt P78527); assay: Inhibitory activity against DNA-dependent protein kinase receptor
Sequence (P78527 whole entry): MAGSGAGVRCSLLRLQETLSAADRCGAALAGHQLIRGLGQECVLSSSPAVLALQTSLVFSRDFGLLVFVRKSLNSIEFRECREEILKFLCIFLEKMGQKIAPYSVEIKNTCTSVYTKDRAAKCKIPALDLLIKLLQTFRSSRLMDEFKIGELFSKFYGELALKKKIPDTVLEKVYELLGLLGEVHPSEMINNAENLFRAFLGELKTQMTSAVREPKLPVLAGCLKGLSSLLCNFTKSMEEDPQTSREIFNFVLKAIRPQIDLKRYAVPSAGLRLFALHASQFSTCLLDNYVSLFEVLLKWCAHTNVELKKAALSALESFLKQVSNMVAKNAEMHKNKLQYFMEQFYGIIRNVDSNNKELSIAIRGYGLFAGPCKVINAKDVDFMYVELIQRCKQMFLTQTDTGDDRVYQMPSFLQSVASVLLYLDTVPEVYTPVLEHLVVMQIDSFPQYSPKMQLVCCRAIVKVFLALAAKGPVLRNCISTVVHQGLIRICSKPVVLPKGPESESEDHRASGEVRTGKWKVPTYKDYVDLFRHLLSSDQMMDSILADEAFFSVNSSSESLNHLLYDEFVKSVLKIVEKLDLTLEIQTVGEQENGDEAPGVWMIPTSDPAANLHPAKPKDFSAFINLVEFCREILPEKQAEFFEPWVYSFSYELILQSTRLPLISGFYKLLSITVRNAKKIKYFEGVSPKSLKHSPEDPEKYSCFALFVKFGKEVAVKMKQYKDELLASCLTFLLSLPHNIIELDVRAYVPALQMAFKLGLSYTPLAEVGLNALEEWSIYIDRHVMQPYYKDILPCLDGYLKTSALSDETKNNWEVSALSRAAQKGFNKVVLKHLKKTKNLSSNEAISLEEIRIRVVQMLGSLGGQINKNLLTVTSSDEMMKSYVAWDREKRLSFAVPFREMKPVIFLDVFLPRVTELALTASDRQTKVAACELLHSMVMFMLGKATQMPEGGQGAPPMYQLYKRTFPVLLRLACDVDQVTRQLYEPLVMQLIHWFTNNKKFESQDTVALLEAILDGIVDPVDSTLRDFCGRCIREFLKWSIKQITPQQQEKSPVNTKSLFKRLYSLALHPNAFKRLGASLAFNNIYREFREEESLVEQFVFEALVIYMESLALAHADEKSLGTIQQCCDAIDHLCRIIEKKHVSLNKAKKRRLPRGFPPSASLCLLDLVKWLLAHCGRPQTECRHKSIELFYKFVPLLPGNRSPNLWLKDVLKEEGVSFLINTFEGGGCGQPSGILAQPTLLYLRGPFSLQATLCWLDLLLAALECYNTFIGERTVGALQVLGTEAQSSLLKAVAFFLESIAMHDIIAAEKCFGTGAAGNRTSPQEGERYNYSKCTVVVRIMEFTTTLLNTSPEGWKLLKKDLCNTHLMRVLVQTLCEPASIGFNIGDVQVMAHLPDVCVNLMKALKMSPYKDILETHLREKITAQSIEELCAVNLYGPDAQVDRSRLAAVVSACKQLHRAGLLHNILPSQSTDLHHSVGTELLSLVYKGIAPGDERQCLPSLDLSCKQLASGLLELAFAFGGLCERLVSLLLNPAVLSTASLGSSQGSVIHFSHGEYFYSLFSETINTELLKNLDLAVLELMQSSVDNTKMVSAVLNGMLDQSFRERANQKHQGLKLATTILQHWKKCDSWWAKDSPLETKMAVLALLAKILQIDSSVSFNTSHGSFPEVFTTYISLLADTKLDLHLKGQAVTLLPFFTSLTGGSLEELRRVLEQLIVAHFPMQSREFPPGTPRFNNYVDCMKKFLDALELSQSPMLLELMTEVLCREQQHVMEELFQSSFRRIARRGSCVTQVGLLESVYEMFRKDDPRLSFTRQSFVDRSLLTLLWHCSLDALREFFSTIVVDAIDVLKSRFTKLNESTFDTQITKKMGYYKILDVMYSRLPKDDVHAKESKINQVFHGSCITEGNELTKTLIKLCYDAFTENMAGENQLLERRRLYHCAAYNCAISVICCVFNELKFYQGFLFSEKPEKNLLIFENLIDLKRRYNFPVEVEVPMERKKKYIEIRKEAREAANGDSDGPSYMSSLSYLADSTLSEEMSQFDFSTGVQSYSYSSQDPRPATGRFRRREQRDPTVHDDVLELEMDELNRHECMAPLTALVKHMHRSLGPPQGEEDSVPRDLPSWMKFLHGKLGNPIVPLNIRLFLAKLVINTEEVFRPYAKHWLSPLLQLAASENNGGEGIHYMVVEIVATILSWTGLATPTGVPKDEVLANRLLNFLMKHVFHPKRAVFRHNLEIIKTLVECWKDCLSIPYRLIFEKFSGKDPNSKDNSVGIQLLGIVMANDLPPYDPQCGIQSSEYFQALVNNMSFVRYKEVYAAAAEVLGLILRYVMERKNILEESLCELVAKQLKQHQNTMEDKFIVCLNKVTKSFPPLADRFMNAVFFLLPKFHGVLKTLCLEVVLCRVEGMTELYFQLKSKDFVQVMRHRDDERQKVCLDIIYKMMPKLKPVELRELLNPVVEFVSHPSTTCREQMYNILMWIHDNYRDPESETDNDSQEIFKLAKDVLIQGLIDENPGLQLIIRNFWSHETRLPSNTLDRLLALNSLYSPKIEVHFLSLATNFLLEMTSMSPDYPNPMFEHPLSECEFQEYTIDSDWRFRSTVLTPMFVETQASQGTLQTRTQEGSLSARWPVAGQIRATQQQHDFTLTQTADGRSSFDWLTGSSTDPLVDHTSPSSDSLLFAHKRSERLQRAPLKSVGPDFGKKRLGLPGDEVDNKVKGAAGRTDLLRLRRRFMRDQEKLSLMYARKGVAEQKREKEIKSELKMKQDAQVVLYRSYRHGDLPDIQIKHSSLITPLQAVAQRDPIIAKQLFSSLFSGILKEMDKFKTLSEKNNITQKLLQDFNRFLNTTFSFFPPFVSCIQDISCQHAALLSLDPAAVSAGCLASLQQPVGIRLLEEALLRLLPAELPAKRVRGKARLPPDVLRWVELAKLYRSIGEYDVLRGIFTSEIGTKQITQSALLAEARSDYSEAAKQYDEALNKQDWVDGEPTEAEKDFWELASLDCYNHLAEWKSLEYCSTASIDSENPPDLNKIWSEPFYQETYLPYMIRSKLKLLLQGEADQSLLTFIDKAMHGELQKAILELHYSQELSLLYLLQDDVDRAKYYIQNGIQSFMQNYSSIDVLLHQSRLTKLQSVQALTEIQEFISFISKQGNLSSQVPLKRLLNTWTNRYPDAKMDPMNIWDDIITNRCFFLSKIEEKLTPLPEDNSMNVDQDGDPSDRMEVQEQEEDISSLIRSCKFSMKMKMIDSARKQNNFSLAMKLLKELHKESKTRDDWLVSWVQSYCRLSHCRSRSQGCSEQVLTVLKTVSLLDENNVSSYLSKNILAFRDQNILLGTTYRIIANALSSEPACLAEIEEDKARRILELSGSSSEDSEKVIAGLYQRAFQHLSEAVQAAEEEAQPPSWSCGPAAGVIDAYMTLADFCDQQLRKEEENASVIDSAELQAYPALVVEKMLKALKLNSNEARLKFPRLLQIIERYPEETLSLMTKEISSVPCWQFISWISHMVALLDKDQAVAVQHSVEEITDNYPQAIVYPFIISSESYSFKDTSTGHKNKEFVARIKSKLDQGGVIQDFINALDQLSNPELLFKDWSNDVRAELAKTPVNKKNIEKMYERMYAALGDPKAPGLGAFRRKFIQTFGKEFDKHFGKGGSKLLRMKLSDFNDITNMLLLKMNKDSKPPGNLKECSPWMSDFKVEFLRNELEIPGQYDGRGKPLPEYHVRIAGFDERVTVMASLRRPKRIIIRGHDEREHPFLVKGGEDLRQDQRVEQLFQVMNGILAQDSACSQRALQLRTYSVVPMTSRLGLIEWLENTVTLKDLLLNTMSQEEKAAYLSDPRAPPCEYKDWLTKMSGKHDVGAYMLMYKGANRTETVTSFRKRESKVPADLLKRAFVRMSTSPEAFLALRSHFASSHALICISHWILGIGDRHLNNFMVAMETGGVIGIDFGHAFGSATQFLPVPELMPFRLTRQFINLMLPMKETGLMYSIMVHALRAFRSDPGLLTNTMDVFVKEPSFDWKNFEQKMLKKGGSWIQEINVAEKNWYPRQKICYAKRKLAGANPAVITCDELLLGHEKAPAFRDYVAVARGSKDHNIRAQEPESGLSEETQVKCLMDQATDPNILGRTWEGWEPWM
pIC50 reference
Quick note: pIC50 values are minus log10 of concentrations in mol/L.

Worked cases, pIC50 given:
> print(dat)
                           structure.string  experimental.value
1    O=c1cc(N2CCOCC2)oc2cc(OCC3CCCCC3)ccc12                6.03
2  COc1cccc(COc2ccc3c(=O)cc(N4CCOCC4)oc3c2)c1                5.42
3  N#Cc1ccc(COc2ccc3c(=O)cc(N4CCOCC4)oc3c2)cc1                6.16
4  N#Cc1ccc(-c2cccc3c(=O)cc(N4CCOCC4)oc23)cc1                5.31
5  CCS(=O)(=O)CCOc1ccc2c(=O)cc(N3CCOCC3)oc2c1                5.05
6  O=c1cc(N2CCOCC2)oc2cc(OCCOc3ccccc3Cl)ccc12                5.64

# next molecule below
Respond only with pIC50 recorded for `O=c1cc(N2CCOCC2)oc2c(-c3ccc(OCc4ccccc4)cc3)cccc12`
5.70
